systemName: human JAK3 catalytic kinase (JH1) domain (Homo sapiens (Human))
Sequence (P52333 822-1111): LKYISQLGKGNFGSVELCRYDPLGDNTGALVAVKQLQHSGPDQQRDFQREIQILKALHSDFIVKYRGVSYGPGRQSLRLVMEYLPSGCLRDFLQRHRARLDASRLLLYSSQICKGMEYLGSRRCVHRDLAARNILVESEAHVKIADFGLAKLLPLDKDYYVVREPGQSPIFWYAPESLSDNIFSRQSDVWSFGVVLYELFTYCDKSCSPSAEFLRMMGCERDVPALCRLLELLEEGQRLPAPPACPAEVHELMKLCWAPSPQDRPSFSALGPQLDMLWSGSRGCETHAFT
procedureDetails: ADP-Glo Kinase Assay, recombinant JAK3 catalytic kinase (JH1) domain
Format: biochemical
conditionDetails: recombinant JH1 domain 0.3 nM, 4 μM ATP, JAK3-974 peptide, mean, read-out: JAK3 biochem IC50 (nM) Mean
Counter-ions that a name gives are not always drawn.
Categories are defined by ranges of IC50, namely small value: < 700 nM; mid value: ≥ 700 nM and < 5000 nM; large value: ≥ 5000 nM

>  <molecule>
O=C(C1C[C@H]1F)N1C2CCC1CN(c1ncnc3[nH]c(-c4cncc(F)c4)cc13)C2 (stereo partly drawn)

>  <answerLabel>
large value

$$$$
>  <molecule>
O=C(C1CC1)N1C2CCC1CN(c1ncnn3cc(-c4ccccc4F)cc13)C2

>  <answerLabel>
large value

$$$$
>  <molecule>
O=C([C@@H]1C[C@H]1F)N1C2CCC1CN(c1ncnn3cc(-c4cnn(C(F)F)c4)cc13)C2 [Example 1]

>  <answerLabel>
mid value

$$$$
>  <molecule>
COc1cc(-c2cn3nccc(N4CC5CCC(C4)N5C(=O)[C@@H]4C[C@H]4F)c3n2)ccn1

>  <answerLabel>
small value

$$$$
>  <molecule>
Cc1ccc(-c2cc3c(N4CC5CCC(C4)N5C(=O)[C@@H]4C[C@H]4F)ncnn3c2)cn1

>  <answerLabel>
mid value

$$$$
>  <molecule>
Cn1cc(-c2cc3c(N4CC5CCC(C4)N5C(=O)[C@@H]4C[C@H]4F)ccnc3[nH]2)c(F)n1

>  <answerLabel>
small value

$$$$
>  <molecule>
O=C(C1CC(F)(F)C1)N1C2CCC1CN(c1ncnn3cc(-c4cnn(C(F)F)c4)cc13)C2

>  <answerLabel>
large value

$$$$
>  <molecule>
O=C([C@@H]1CC1(F)F)N1C2CCC1CN(c1ccnn3cc(-c4cnn(C(F)F)c4)cc13)C2

>  <answerLabel>
small value

$$$$
>  <molecule>
Cn1ncc(-c2cc3c(N4CC5CCC(C4)N5C(=O)C4(F)CC4)ccnc3[nH]2)c1F

>  <answerLabel>
small value

$$$$
>  <molecule>
Cn1cc(-c2cc3c(N4CC5CCC(C4)N5C(=O)C4CC4)ncnc3[nH]2)cn1

>  <answerLabel>
small value

$$$$
>  <molecule>
N#Cc1ccc(-c2cc3c(N4CC5CCC(C4)N5C(=O)[C@@H]4C[C@H]4F)ncnc3[nH]2)cn1

>  <answerLabel>
mid value

$$$$
>  <molecule>
Cn1cc(-c2cc3c(N4CC5CCC(C4)N5C(=O)[C@@H]4CC4(F)F)ccnn3c2)cn1

>  <answerLabel>
small value

$$$$
>  <molecule>
O=C([C@@H]1C[C@H]1F)N1C2CCC1CN(c1ccnc3[nH]c(C4(F)CC4)nc13)C2

>  <answerLabel>
large value

$$$$
>  <molecule>
Cn1cc(-c2cc3c(N4CC5CCC(C4)N5C(=O)[C@H]4C[C@@H]4F)ncnn3c2)cn1 (racemic) [Example 61]

>  <answerLabel>
mid value

$$$$
>  <molecule>
Cc1ccc(-c2cc3c(N4CC5CCC(C4)N5C(=O)[C@@H]4C[C@H]4F)ccnn3c2)nn1

>  <answerLabel>
mid value

$$$$
>  <molecule>
Cn1cc(-c2cc3c(N4CC5CCC(C4)N5C(=O)C4(F)CC4)ncnn3c2)cn1

>  <answerLabel>
mid value

$$$$
>  <molecule>
Cc1cc(-c2cc3c(N4CC5CCC(C4)N5C(=O)[C@@H]4C[C@H]4F)ncnn3c2)ccn1

>  <answerLabel>
mid value

$$$$
>  <molecule>
O=C([C@@H]1C[C@H]1F)N1C2CCC1CN(c1ncnn3cc(-c4ccnc(C(F)F)c4)cc13)C2

>  <answerLabel>
mid value

$$$$
>  <molecule>
Cn1cc(-c2cc3c(N4CC5CCC(C4)N5C(=O)[C@@H]4C[C@H]4F)ncnn3c2)cn1 [Example 82]

>  <answerLabel>
mid value

$$$$
>  <molecule>
O=C([C@@H]1C[C@H]1F)N1C2CCC1CN(c1ncnc3[nH]c(-c4cnn(C(F)F)c4)cc13)C2

>  <answerLabel>
small value

$$$$
>  <molecule>
Cn1cnc(-c2cc3c(N4CC5CCC(C4)N5C(=O)C4CC4)ncnn3c2)c1

>  <answerLabel>
large value

$$$$
>  <molecule>
Cn1cc(-c2nc3c(N4CC5CCC(C4)N5C(=O)C4CC4)ccnc3[nH]2)cn1

>  <answerLabel>
small value

$$$$
>  <molecule>
CN(C)c1cc(-c2cc3c(N4CC5CCC(C4)N5C(=O)[C@@H]4C[C@H]4F)ccnn3c2)cnn1

>  <answerLabel>
mid value

$$$$
>  <molecule>
CCOC1CC1C(=O)N1C2CCC1CN(c1ncnn3cc(-c4cnn(C(F)F)c4)cc13)C2 (stereo not drawn) [Example 35, trifluoroacetate]

>  <answerLabel>
large value

$$$$
>  <molecule>
COc1cc(-c2cc3c(N4CC5CCC(C4)N5S(=O)(=O)C4CC4)ncnc3[nH]2)ccn1

>  <answerLabel>
large value

$$$$
